Target: PDPK1 (human) (UniProt O15530)
Sequence (O15530 whole entry, looked up): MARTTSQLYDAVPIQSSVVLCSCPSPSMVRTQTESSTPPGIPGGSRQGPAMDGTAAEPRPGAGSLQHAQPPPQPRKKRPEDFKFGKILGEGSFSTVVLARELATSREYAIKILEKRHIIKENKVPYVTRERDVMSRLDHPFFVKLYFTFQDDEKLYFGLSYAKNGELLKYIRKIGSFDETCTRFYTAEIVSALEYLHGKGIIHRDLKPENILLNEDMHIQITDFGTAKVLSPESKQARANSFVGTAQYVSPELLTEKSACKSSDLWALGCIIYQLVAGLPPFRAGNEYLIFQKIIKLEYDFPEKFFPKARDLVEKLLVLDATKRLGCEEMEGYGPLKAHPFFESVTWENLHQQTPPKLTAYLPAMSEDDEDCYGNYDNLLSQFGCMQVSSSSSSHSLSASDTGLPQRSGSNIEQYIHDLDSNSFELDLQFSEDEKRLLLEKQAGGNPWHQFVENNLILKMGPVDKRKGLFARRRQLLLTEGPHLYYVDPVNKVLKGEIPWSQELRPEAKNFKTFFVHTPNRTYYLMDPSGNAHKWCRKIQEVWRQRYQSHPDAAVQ
metricName: Ki (µM)
The figure you give is taken to be in µM; do not add the unit.

Report the value of Ki obtained on PDPK1 (human) (UniProt O15530) for `O=C1c2ccccc2-c2n[nH]c3cccc1c23` .
0.631

---

Target: UniProt:P17612
Assay: Flashplate
metricName: Ki

Look up and report measured Ki for this entry: `O=C1c2ccccc2-c2n[nH]c3cccc1c23`
> 7.94 µM

---

Molecular target: PKN2 (human) (UniProt Q16513)
Sequence (Q16513 whole entry, looked up): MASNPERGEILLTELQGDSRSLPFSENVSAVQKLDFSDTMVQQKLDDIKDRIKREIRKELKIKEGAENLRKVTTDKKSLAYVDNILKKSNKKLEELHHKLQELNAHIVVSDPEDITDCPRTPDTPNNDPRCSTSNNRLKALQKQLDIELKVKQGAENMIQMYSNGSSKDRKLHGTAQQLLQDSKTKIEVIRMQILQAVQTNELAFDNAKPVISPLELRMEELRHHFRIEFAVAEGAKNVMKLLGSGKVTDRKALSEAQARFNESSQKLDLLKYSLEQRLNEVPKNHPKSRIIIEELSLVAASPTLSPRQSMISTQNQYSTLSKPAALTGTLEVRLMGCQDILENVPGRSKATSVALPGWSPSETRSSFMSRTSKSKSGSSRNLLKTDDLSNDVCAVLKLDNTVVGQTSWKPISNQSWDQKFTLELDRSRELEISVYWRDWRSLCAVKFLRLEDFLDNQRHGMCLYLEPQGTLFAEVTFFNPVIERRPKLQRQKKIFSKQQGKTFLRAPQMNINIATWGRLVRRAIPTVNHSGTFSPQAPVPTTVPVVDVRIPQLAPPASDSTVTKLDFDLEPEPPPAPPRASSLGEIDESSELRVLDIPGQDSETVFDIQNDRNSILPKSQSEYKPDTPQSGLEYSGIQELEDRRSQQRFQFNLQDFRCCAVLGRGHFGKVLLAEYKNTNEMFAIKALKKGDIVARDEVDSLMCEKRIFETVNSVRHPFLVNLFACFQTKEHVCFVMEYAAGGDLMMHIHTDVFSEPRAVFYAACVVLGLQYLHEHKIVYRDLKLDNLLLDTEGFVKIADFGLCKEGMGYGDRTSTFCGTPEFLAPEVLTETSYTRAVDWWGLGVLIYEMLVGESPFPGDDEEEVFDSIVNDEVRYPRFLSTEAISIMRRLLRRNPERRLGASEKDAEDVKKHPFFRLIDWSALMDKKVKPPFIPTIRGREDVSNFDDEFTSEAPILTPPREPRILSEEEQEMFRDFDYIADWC
metricName: Ki

Report the value of Ki obtained on PKN2 (human) (UniProt Q16513) for `O=C1c2ccccc2-c2n[nH]c3cccc1c23` .
> 7.94 µM

---

The listing below reports Ki for compounds tested on MARK3 (human) (UniProt P27448).
Sequence (P27448 whole entry, looked up): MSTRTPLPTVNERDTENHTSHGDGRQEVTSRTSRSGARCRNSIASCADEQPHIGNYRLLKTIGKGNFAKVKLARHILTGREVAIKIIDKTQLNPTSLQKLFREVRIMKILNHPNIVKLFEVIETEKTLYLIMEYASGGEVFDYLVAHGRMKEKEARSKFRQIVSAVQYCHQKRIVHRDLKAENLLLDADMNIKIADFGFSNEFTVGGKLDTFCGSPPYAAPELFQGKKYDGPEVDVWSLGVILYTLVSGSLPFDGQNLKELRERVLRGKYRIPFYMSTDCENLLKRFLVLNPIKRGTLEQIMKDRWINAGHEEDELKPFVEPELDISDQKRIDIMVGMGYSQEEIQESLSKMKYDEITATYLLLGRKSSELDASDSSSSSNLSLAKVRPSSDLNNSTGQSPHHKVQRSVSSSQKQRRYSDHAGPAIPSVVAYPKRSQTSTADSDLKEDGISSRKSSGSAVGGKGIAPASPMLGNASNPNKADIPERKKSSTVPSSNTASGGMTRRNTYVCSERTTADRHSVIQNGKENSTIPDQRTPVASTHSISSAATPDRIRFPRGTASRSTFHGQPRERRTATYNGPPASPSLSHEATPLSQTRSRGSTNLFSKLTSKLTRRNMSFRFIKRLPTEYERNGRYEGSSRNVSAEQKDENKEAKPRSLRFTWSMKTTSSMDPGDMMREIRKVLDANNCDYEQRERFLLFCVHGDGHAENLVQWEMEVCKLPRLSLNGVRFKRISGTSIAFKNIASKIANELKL
Write the figure, then the unit, nothing else.

>  <structureSmilesString>
O=C1c2ccccc2-c2n[nH]c3cccc1c23

>  <metricName>
Ki

>  <observedMeasurement>
3.98 nM

$$$$

We next turn to a different compound, shown below.
Report the value of Ki obtained on MARK3 (human) (UniProt P27448) for `CCn1c(=O)/c(=C\Nc2ccccc2)s/c1=C(/C#N)C(=O)O` .
3980 nM

---

Molecular target: TYK2 JH1 JH2 (human) (UniProt P29597)
Sequence (P29597 whole entry, looked up): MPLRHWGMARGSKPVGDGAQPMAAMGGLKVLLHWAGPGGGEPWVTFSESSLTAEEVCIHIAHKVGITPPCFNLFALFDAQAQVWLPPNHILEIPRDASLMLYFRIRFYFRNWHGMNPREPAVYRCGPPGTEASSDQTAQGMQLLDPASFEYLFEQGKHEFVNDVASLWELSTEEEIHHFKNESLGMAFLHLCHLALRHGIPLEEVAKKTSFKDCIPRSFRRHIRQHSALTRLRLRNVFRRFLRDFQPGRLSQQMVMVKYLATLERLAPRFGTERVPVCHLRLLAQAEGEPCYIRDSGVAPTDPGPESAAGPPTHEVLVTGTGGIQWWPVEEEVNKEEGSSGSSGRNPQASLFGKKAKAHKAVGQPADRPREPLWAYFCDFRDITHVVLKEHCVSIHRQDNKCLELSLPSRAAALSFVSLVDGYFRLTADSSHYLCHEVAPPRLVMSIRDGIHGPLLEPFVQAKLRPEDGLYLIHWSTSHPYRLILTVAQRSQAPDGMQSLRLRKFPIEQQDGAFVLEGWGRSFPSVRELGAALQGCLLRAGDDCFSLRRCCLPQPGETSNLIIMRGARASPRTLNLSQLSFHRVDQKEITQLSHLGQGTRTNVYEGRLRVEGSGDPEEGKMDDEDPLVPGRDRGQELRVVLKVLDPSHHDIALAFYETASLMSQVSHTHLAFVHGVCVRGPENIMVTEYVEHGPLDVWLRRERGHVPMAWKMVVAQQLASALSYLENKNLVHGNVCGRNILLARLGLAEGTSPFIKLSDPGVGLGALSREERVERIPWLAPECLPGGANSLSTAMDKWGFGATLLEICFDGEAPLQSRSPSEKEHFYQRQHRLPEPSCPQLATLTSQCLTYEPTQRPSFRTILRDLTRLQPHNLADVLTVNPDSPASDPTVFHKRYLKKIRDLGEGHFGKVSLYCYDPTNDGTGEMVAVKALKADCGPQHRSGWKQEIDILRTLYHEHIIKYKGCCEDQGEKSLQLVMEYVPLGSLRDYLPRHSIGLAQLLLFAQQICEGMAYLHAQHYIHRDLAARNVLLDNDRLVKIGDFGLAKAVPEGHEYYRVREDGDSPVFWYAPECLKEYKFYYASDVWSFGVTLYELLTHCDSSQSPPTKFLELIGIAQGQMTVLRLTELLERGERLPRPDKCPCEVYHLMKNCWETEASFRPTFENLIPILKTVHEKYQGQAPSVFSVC
Test: HTRF
metricName: Ki (nM)
The figure you give is taken to be in nM; do not add the unit.

Look up and report measured Ki for this entry: `O=C1c2ccccc2-c2n[nH]c3cccc1c23`
1260

---

Target: UniProtKB O00141
Sequence (O00141 whole entry, looked up): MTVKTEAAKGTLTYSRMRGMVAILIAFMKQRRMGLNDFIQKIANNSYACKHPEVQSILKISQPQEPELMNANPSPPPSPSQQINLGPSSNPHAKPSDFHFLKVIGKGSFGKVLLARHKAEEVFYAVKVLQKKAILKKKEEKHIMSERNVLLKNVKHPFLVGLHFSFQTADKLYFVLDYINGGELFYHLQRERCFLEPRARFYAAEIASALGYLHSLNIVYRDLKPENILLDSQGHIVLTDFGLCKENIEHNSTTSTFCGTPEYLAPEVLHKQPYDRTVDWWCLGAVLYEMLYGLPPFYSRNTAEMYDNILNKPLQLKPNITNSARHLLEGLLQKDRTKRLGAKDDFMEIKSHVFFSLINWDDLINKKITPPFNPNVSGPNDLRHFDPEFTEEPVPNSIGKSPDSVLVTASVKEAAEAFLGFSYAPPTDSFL
pKi: −log10 of the molar value.
metricName: pKi

>  <compound>
Cc1ccccc1NC(=O)Nc1ccc(NC(=O)c2csc3ncnc(N)c23)cc1

>  <observedMeasurement>
< 5.00

$$$$
>  <compound>
Cn1nc(C(F)(F)F)c2c(=O)c3cc(Cl)ccc3n(O)c21

>  <observedMeasurement>
< 5.00

$$$$

We next turn to a different compound, shown below.
Report the value of pKi obtained on UniProtKB O00141 for COc1cc(-c2ccc3c(c2)Nc2ccc(CCOc4ccc(N5CCOCC5)cc4)cc2NC3=O)ccc1OCC(O)CO (stereo not drawn) .
< 5.00

---

Biological target: SGK1 (human)
pKi: −log10 of the molar value.
metricName: pKi

>  <structureSmilesString>
COc1cc2c(N3CCN(C(=O)Nc4ccc(OC(C)C)cc4)CC3)ncnc2cc1OCCCN1CCCCC1

>  <pKi>
< 5.10

$$$$
>  <structureSmilesString>
COc1cc(N2CCC(N3CCN(C)CC3)CC2)ccc1Nc1ncc(Cl)c(Nc2ccccc2S(=O)(=O)C(C)C)n1

>  <pKi>
< 5.00

$$$$

We next turn to a different compound, shown below.
Look up and report measured pKi for this entry: `CCc1cccc(NC(=O)Nc2ccc3c(c2)CCc2sc4ncnc(N)c4c2-3)c1`
< 5.00

---

Biological target: SGK1 (human)
metricName: Ki

Here are 6 compounds together with their reported answers.
>  <structureSmilesString>
CN(C(=O)C1CCCCC1)c1ccc2c(c1)nc(NC(=O)c1ccc(C#N)cc1)n2CCC(N)=O

>  <Ki>
> 10 µM

$$$$
>  <structureSmilesString>
O=C(Nc1cccc(Cl)c1)Nc1ncc(CCNc2ncnc3ccsc23)s1

>  <Ki>
> 10 µM

$$$$
>  <structureSmilesString>
O=c1[nH]cnc2c1sc1c(Cl)ccc(Cl)c12

>  <Ki>
> 10 µM

$$$$
>  <structureSmilesString>
COc1ccc(-c2cnc3c(Br)cnn3c2)cc1

>  <Ki>
3.16 µM

$$$$
>  <structureSmilesString>
CC1=NN(c2ccccc2)C(=O)/C1=C/c1c(C)c(C#N)c2nc3ccccc3n2c1O

>  <Ki>
> 10 µM

$$$$
>  <structureSmilesString>
O=C(Nc1cnccn1)Nc1ccnc2cc(C(F)(F)F)ccc12

>  <Ki>
1 µM

$$$$

Report the value of Ki obtained on SGK1 (human) for `Clc1cc2nn[nH]c2cc1Cl` .
> 10 µM

Report the value of Ki obtained on SGK1 (human) for `CN1CCN(CCCNc2cccc(-c3nc4c(C(N)=O)cccc4[nH]3)n2)CC1` .
> 10 µM

Report the value of Ki obtained on SGK1 (human) for `Cc1csc(NC(=O)c2sc3nc(-c4ccncc4)ccc3c2N)n1` .
> 10 µM

Report the value of Ki obtained on SGK1 (human) for `CCCCNc1ccc2c3c(cccc13)C(=O)N(CCNCCO)C2=O` .
> 10 µM

Report the value of Ki obtained on SGK1 (human) for `NC(=O)c1cc2c(-c3ccc(F)cc3F)cncc2s1` .
1.26 µM
